B1: TMEM192 (parent)
chain: LWILHLLLECYIQYHHSKIRNRGY

Variants of: B1
Protocol description: protein stability index of a GFP-peptide fusion (GPS, HEK-293T) (PSI 1-6); higher = more stable;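 note: lentivirally expressed fusions sorted by FACS into six bins by GFP to DsRed ratio, PSI derived from sequencing read proportions per bin multiplied by bin number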
Conditions: c terminus: a fixed tail appended
Please enter fulfilled where protein stability index is greater than or equal to 3, and not fulfilled where it is lower.

residue_change=W2F qualitative_label=fulfilled
residue_change=K18Q qualitative_label="not fulfilled"
residue_change=N21I qualitative_label="not fulfilled"
residue_change=K18R qualitative_label=fulfilled
residue_change=Y11N qualitative_label=fulfilled
residue_change=S17H qualitative_label="not fulfilled"
residue_change=L1Y qualitative_label="not fulfilled"
residue_change=I12M qualitative_label="not fulfilled"
residue_change=Y14A qualitative_label=fulfilled
residue_change=I3S qualitative_label="not fulfilled"
residue_change=Y24H qualitative_label="not fulfilled"
